Test: RP-HPLC insulin apparent solubility / percent recovery (content)
Details: stabilizer screen in rHuPH20/insulin formulation; RP-HPLC on samples stored at 5° C.; semi-quantitative in comparison with NaCl
propertyName: Effect on insulin solubility

Consider the following illustrative entries.
[[record]]
molecule = "C[N+](C)(C)CC(=O)O"
propertyname = "Effect on insulin solubility"
measurement = "No effect"

[[record]]
molecule = "CSCC[C@H](N)C(=O)O"
propertyname = "Effect on insulin solubility"
measurement = "No effect"

[[record]]
molecule = "C[N+](C)(C)[O-] [Trimethylamine oxide (TMAO)]"
propertyname = "Effect on insulin solubility"
measurement = "No effect"

[[record]]
molecule = "NC(=O)CC[C@H](N)C(=O)O"
propertyname = "Effect on insulin solubility"
measurement = "No effect"


Let us move to another entry and its Effect on insulin solubility.
INPUT: Look at this molecule and give its reported Effect on insulin solubility. NCCCC[C@H](N)C(=O)O
OUTPUT: No effect
